# TC50 (6d) listing for each entry below
Tested on: Vero cells
Test: Simultaneous toxicity investigation (XTT), Vero cells
Format: cell-based
Parameters: unit not given here
Details: Table 2, Examples 83 to 124, 6d
Could you keep your reply to the number by itself?

Some entries whose results are on file:
INSERT INTO results (compound, measured) VALUES
  ('COc1ccc(F)cc1C(=O)NC1N=C(c2ccccc2)c2ccccc2NC1=O (stereo not shown) [Example 92]', 100),
  ('COc1ccc(C(=O)NC2N=C(c3ccccc3)c3ccccc3NC2=O)c(OC)c1 (stereo not shown) [Example 107]', 60),
  ('Cc1cc(C)cc(NC(=O)NC2N=C(c3ccccc3)c3ccccc3NC2=O)c1 (stereo not shown) [Example 115]', 60),
  ('O=C(Nc1cccc(Cl)c1Cl)NC1N=C(c2ccccc2)c2ccccc2NC1=O (stereo not shown) [Example 119]', 30);

Prompt line: Tell us which TC50 (6d) value is on record for O=C(NCc1ccc(Br)cc1)NC1N=C(c2ccccc2)c2ccccc2NC1=O (stereo not shown) [Example 118]
Response line: 100

====

# TC50 (6d) listing for each entry below
System: Hep-2 cells
Assay: Toxicity studies (XTT), Hep-2 cells
Assay type: cell-based
Design: unit not given beside the values
Conditions: Table 2, Examples 75 to 82 and 125 to 184, 6d, in µM

Some entries whose results are on file:
INSERT INTO results (compound, measured) VALUES
  ('COC(=O)c1ccc(C(=O)NC2N=C(c3ccccc3)c3ccccc3NC2=O)c(OC)c1 (stereo not drawn)', 98),
  ('O=C(Nc1ccsc1)NC1N=C(c2ccccc2)c2ccccc2NC1=O (stereo not drawn)', '>50'),
  ('COc1cc2ccccc2cc1C(=O)N[C@H]1N=C(c2ccccc2)c2ccccc2NC1=O [Example 82b]', '>50'),
  ('CCCOc1ccccc1C(=O)NC1N=C(c2ccccc2)c2ccccc2NC1=O (stereo not drawn)', '>50'),
  ('COC(=O)c1ccc(C(=O)NC2N=C(c3ccccc3)c3ccccc3NC2=O)cc1 (stereo not drawn)', 77.1),
  ('O=C1Nc2ccc(Cl)cc2C(c2ccccc2)=NC1NC(=O)N1CCCCC1 (stereo not drawn)', '>100');

Prompt line: Tell us which TC50 (6d) value is on record for COC(=O)NC1N=C(c2ccccc2)c2ccccc2NC1=O (stereo not drawn)
Response line: >50

Prompt line: Tell us which TC50 (6d) value is on record for O=C(Nc1cccs1)NC1N=C(c2ccccc2)c2ccccc2NC1=O (stereo not drawn)
Response line: >50

Prompt line: Tell us which TC50 (6d) value is on record for O=C(N[C@H]1N=C(c2ccccc2)c2ccccc2NC1=O)c1cc(F)cc2c1OCOC2 [Example 77b]
Response line: 33.2
